Reference source: PubChem BioAssay (NCI)

Test system: MDA-MB-468 breast
Assay procedure: NCI tumour cell line growth inhibition, 48 h; in the data active = GI50 below about 0.43 µM; inactive = the rest
API: response.call in active, inactive

These recorded examples may help you get a feel for the data.
- O=C(Nc1ccncc1)C(=O)c1cn(S(=O)(=O)c2ccc(Br)cc2)c2ccccc12: inactive
- OB([O][Hg][c]1ccccc1)[O][Hg][c]1ccccc1: active
- Cc1cc(NC(=O)C2c3ccccc3C(=O)N(CC(C)C)C2c2cccs2)no1 (stereo not drawn): inactive
- COC(=O)c1c(C(=O)OC)c2n(c1C)[C@@H]([C@@H](C)[C@H]1CC[C@H]3[C@@H]4CCC5=CC(=O)CC[C@]5(C)[C@H]4CC[C@]13C)SC2: inactive
- Cc1cc2c(C)c3cc(C)c(N)cc3nc2cc1N: active
- CC1(C)N=C(N)N=C(N)N1c1cccc(/C=C/C=C/c2cccc([N+](=O)[O-])c2)c1: active

Challenge: Assay outcome for "COC(=O)[C@]12CC[C@@H](C)[C@H](C)[C@@H]1C1=CC[C@@H]3[C@@]4(C)CC(=O)[C@H](O)[C@@]5(C)COC(=C45)C[C@@]3(C)[C@]1(C)CC2" : what was it?
Response given: inactive

Challenge: Assay outcome for CCC1(OC(=O)CN2CCN(CCO)CC2)C(=O)OCc2c1cc1n(c2=O)Cc2cc3ccccc3nc2-1 (stereo not drawn) : what was it?
Response given: active
